Test system: S. aureus ATCC 29213
Assay: CytoSPAR BLAST antibiotic susceptibility test
Assay type: cell-based
Conditions: Staphylococcus aureus, ATCC29213, Table 6; S. aureus ATCC 29213; optimized BLAST, cutoff 0.8; read-out: MIC BLAST
Text: The disclosed technology, which is referred to as the CytoSPAR BLAST (Bacteria Labeling Antibiotic Susceptibility Test) system, is used to quantitatively assess bacterial minimal inhibitory concentration of antibiotics for in vitro susceptibility testing. […] Using the BLAST system, tests can be performed on isolates or direct urine samples. […] These antibiotics are arrayed with increasing concentrations in adjacent wells so that the bacterial response can be measured against each specific concentration. […]
Please go through the items and note down their MIC.

The cases that follow already have their MIC on record.
CO/N=C(\C(=O)N[C@@H]1C(=O)N2C(C(=O)O)=C(CSc3nc(=O)c(=O)[nH]n3C)CS[C@H]12)c1csc(N)n1	1 µg/mL
CO[C@@]1(NC(=O)Cc2cccs2)C(=O)N2C(C(=O)O)=C(COC(N)=O)CS[C@@H]21	1 µg/mL
O=C1CN(/N=C/c2ccc([N+](=O)[O-])o2)C(=O)N1	4 µg/mL

Shifting focus to the compound that follows.
Please supply the value of reported MIC for the item `CO/N=C(\C(=O)N[C@@H]1C(=O)N2C(C(=O)O)=C(COC(N)=O)CS[C@H]12)c1ccco1`
0.25 µg/mL
